Please go through the items and note down their inhibition at 10 µM.
Target: NOP (ORL1) (h) (Homo sapiens, UniProt P41146)
Construct: expressed in transfected cells; host or cells: HEK-293 cells
Sequence (P41146 whole entry): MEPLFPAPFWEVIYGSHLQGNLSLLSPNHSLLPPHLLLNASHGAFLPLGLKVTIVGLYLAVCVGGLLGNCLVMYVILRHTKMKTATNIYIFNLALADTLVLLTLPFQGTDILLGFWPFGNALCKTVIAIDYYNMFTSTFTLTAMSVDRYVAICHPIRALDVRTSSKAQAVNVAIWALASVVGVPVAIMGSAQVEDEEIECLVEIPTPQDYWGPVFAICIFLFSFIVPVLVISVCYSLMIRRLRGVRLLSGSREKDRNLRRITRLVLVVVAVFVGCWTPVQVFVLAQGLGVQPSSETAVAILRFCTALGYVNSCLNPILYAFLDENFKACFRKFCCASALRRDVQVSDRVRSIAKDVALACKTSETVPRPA
Assay: Binding NOP (ORL1) (h) (ag)
Conditions: read-out: % Inhibition of Control Specific Binding @ 10 μM
A number alone suffices; assume %.

Report inhibition at 10 µM, nothing else, for this molecule: "CC1(C)C(=O)N(c2ccc(C#N)c(C(F)(F)F)c2)C(=O)N1c1ccc(C(N)=O)c(F)c1"
0

Report inhibition at 10 µM, nothing else, for this molecule: "CC1(C)C(=O)N(c2ccc(C#N)c(C(F)(F)F)c2)C(=S)N1c1ccc(C(N)=O)c(F)c1"
-4

Report inhibition at 10 µM, nothing else, for this molecule: "CC1(C)C(=O)N(c2ccc(C#N)c(C(F)(F)F)c2)C(=S)N1c1ccc(C(=O)O)c(F)c1"
-10

Report inhibition at 10 µM, nothing else, for this molecule: "CNC(=O)c1ccc(N2C(=O)N(c3ccc(C#N)c(C(F)(F)F)c3)C(=O)C2(C)C)cc1F"
-2

----------
Target: Cholecystokinin CCK2 (CCKB) (h) (Homo sapiens, UniProt P32239)
Construct: expressed in transfected cells; host or cells: CHO cells
Sequence (P32239 whole entry): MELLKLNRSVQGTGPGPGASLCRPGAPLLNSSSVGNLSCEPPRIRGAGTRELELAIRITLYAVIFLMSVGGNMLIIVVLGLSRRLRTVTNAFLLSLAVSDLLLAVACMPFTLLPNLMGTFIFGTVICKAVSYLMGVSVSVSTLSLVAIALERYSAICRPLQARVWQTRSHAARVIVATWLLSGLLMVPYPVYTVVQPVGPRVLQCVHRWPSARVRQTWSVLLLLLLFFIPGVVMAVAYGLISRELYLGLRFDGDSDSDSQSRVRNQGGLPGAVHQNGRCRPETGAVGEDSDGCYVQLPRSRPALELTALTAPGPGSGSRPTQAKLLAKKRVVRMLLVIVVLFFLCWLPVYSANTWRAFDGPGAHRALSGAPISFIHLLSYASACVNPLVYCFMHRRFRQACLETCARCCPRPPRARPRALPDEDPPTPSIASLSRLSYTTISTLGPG
Experiment: Binding CCK2 (CCKB) (h) (ag)
Conditions: read-out: % Inhibition of Control Specific Binding @ 10 μM
assay_readout: inhibition at 10 µM (%)
A number alone suffices; assume %.

Report inhibition at 10 µM, nothing else, for this molecule: "CNC(=O)c1ccc(N2C(=O)N(c3ccc(C#N)c(C(F)(F)F)c3)C(=O)C2(C)C)cc1F"
-12

Report inhibition at 10 µM, nothing else, for this molecule: "CC1(C)C(=O)N(c2ccc(C#N)c(C(F)(F)F)c2)C(=S)N1c1ccc(C(N)=O)c(F)c1"
-18

Report inhibition at 10 µM, nothing else, for this molecule: "CC1(C)C(=O)N(c2ccc(C#N)c(C(F)(F)F)c2)C(=O)N1c1ccc(C(N)=O)c(F)c1"
-18

Report inhibition at 10 µM, nothing else, for this molecule: "CC1(C)C(=O)N(c2ccc(C#N)c(C(F)(F)F)c2)C(=S)N1c1ccc(C(=O)O)c(F)c1"
-10

----------
Target: Neurokinin NK2 (h) (Homo sapiens, UniProt P21452)
Construct: expressed in transfected cells; host or cells: CHO cells
Sequence (P21452 whole entry): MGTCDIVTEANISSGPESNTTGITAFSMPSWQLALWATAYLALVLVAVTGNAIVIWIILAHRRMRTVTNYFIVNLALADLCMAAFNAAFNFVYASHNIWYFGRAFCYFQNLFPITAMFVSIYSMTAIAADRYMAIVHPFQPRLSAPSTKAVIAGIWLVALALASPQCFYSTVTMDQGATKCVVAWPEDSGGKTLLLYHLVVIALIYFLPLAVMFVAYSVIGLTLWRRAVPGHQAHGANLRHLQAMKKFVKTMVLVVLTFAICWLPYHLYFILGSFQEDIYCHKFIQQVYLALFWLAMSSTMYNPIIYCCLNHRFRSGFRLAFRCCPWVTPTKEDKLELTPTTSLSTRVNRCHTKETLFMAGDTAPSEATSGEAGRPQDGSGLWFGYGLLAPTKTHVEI
Assay: Binding NK2 (h) (ag)
Conditions: read-out: % Inhibition of Control Specific Binding @ 10 μM
assay_readout: inhibition at 10 µM (%)
A number alone suffices; assume %.

Report inhibition at 10 µM, nothing else, for this compound: "CNC(=O)c1ccc(N2C(=O)N(c3ccc(C#N)c(C(F)(F)F)c3)C(=O)C2(C)C)cc1F"
2

Report inhibition at 10 µM, nothing else, for this compound: "CC1(C)C(=O)N(c2ccc(C#N)c(C(F)(F)F)c2)C(=S)N1c1ccc(C(=O)O)c(F)c1"
-6

Report inhibition at 10 µM, nothing else, for this compound: "CC1(C)C(=O)N(c2ccc(C#N)c(C(F)(F)F)c2)C(=S)N1c1ccc(C(N)=O)c(F)c1"
-3

Report inhibition at 10 µM, nothing else, for this compound: "CC1(C)C(=O)N(c2ccc(C#N)c(C(F)(F)F)c2)C(=O)N1c1ccc(C(N)=O)c(F)c1"
0

----------
Please go through the items and note down their % Inhibition of Control Specific Binding @ 10 μM.
System: Cl^− channel (GABA-gated)
Test: Binding Cl− channel (GABA-gated) (aa)
Design: species or system rat
A number alone suffices; assume %.

Report % Inhibition of Control Specific Binding @ 10 μM, nothing else, for this compound: "CC1(C)C(=O)N(c2ccc(C#N)c(C(F)(F)F)c2)C(=S)N1c1ccc(C(N)=O)c(F)c1"
81

Report % Inhibition of Control Specific Binding @ 10 μM, nothing else, for this compound: "CC1(C)C(=O)N(c2ccc(C#N)c(C(F)(F)F)c2)C(=O)N1c1ccc(C(N)=O)c(F)c1"
38

Report % Inhibition of Control Specific Binding @ 10 μM, nothing else, for this compound: "CNC(=O)c1ccc(N2C(=O)N(c3ccc(C#N)c(C(F)(F)F)c3)C(=O)C2(C)C)cc1F"
36

Report % Inhibition of Control Specific Binding @ 10 μM, nothing else, for this compound: "CC1(C)C(=O)N(c2ccc(C#N)c(C(F)(F)F)c2)C(=S)N1c1ccc(C(=O)O)c(F)c1"
47
